- System: galium (catchweed bedstraw, Galium aparine)
- ASSAY SUMMARY: Test D controlled growth environment herbicide test, pre- and postemergence
- Assay type: in vivo
- RECORDED CONDITIONS: Postemergence, 250 g ai/ha; scale 0 to 100 (0 no effect, 100 complete control)
Reported Plant response rating, Galium is given for each of the following molecules.

SMILES TEXT	Plant response rating, Galium
CCCC(=O)Oc1c(C)nn(C)c(=O)c1-c1c(C)sc2ccc(C)cc12	100
Cc1ccc2sc(C)c(-c3c(OC(=O)OC(C)C)c(C)nn(C)c3=O)c2c1	100
Cc1cc(C)c2sc(C)c(-c3c(O)c(C)nn(C)c3=O)c2c1	100
Cc1nn(C)c(=O)c(-c2ccc(F)c3ccccc23)c1O	100
COC(=O)Oc1c(C)nn(C)c(=O)c1-c1c(C)sc2ccc(C)cc12	100
Cc1nn(C)c(=O)c(-c2c(C)sc3c(C)cc(Cl)cc23)c1O	100
Cc1ccc2ccccc2c1-c1c(O)c(Br)nn(C)c1=O	100
CCc1sc2c(C)cc(C)cc2c1-c1c(O)c(C)nn(C)c1=O	98

----------
- Tested on: arrowleaf sida (Sida rhombifolia)
- ASSAY SUMMARY: Test E greenhouse herbicide test, pre- and postemergence
- Assay type: in vivo
- RECORDED CONDITIONS: Postemergence, 31 g ai/ha; visual, scale 0 no effect to 100 complete control

SMILES TEXT	Plant response rating, Arrowleaf Sida
CCc1sc2ccc(C)cc2c1-c1c(O)c(C)nn(C)c1=O	40
Cc1cc2ccccc2c(-c2c(O)c(C)nn(C)c2=O)c1C	65
CCc1sc2c(C)cc(C)cc2c1-c1c(O)c(C)nn(C)c1=O	10
Cc1ccc2sc(Br)c(-c3c(O)c(C)nn(C)c3=O)c2c1	50

----------
- System: panicum, fall (fall panicum, Panicum dichotomiflorum)
- ASSAY SUMMARY: Test E greenhouse herbicide test, pre- and postemergence
- Assay type: in vivo
- RECORDED CONDITIONS: Postemergence, 31 g ai/ha; visual, scale 0 no effect to 100 complete control
Reported Plant response rating, Panicum, Fall is given for each of the following compounds.
QUANTITY NAME: Plant response rating, Panicum, Fall

SMILES TEXT	RESULT
Cc1nn(C)c(=O)c(-c2cccc3ccc(Br)cc23)c1O	10
CCc1sc2c(C)cc(C)cc2c1-c1c(O)c(C)nn(C)c1=O	40
Cc1cc(C)c2sc(C)c(-c3c(O)c(C)nn(C)c3=O)c2c1	70
Cc1nn(C)c(=O)c(-c2ccc(F)c3ccccc23)c1O	15
Cc1ccc2ccccc2c1-c1c(OC(=O)OC(C)C)c(C)nn(C)c1=O	75

----------
Reported Plant response rating, Field Violet is given for each of the following compounds.
- Tested on: field violet (Viola arvensis)
- ASSAY SUMMARY: Test D controlled growth environment herbicide test, pre- and postemergence
- Format: in vivo
- RECORDED CONDITIONS: Postemergence, 125 g ai/ha; visual rating on scale 0 (no effect) to 100 (complete control), 14 to 21 d

SMILES TEXT	Plant response rating, Field Violet
Cn1nc(Br)c(O)c(-c2cccc3ccccc23)c1=O	25
Cc1nn(C)c(=O)c(-c2cccc3ccc(Br)cc23)c1O	90
Cc1nn(C)c(=O)c(-c2c(C)sc3ccc(Br)cc23)c1O	75
CC(=O)Oc1c(C)nn(C)c(=O)c1-c1c(C)sc2ccc(Cl)cc12	100
Cc1cc2ccccc2c(-c2c(O)c(C)nn(C)c2=O)c1C	95
COC(=O)Oc1c(C)nn(C)c(=O)c1-c1c(C)sc2ccc(C)cc12	95
CCc1sc2c(C)cc(C)cc2c1-c1c(O)c(C)nn(C)c1=O	75
Cc1nn(C)c(=O)c(-c2cccc3ccccc23)c1O	75

----------
- System: ragweed (common ragweed, Ambrosia elatior)
- ASSAY SUMMARY: Test C greenhouse herbicide test, pre- and postemergence
- Assay type: in vivo
- RECORDED CONDITIONS: Postemergence, 31 g ai/ha; scale 0 to 100 (0 no effect, 100 complete control)
Reported Plant response rating, Ragweed is given for each of the following compounds.

SMILES TEXT	MEASURED ON	Plant response rating, Ragweed
Cc1ccc2ccccc2c1-c1c(O)c(C(F)(F)F)nn(C)c1=O	ragweed (common ragweed, Ambrosia elatior)	95
CCCC(=O)Oc1c(C)nn(C)c(=O)c1-c1c(CC)sc2ccc(C)cc12	ragweed (common ragweed, Ambrosia elatior)	85
Cc1nn(C)c(=O)c(-c2c(C)sc3ccc(C(F)(F)F)cc23)c1O	ragweed (common ragweed, Ambrosia elatior)	75
Cc1nn(C)c(=O)c(-c2ccc(Cl)c3ccccc23)c1O	ragweed (common ragweed, Ambrosia elatior)	0
COC(=O)Oc1c(C)nn(C)c(=O)c1-c1ccc(Br)c2ccccc12	ragweed (common ragweed, Ambrosia elatior)	0

----------
- Test system: johnsongrass (Sorghum halepense)
- ASSAY SUMMARY: Test E greenhouse herbicide test, pre- and postemergence
- Type: in vivo
- RECORDED CONDITIONS: 62 g ai/ha, Preemergence; scale 0 to 100 (0 no effect, 100 complete control)
- Excerpt: […]

COMPOUND	Plant response rating, Johnsongrass
COC(=O)Oc1c(C)nn(C)c(=O)c1-c1c(C)sc2ccc(C)cc12 [Compound 80]	80
Cc1nn(C)c(=O)c(-c2ccc(F)c3ccccc23)c1O [Compound 41]	0
Cc1ccc2sc(C)c(-c3c(OC(=O)OC(C)C)c(C)nn(C)c3=O)c2c1 [Compound 66]	0
CCc1sc2c(C)cc(C)cc2c1-c1c(O)c(C)nn(C)c1=O [Compound 57]	30

----------
- System: pigweed (Amaranthus retroflexus)
- ASSAY SUMMARY: Test A greenhouse herbicide test, pre- and postemergence
- Format: in vivo
- RECORDED CONDITIONS: Postemergence, 125 g ai/ha; 0 to 100 scale where 0 is no effect and 100 is complete control

SMILES TEXT	Plant response rating, Pigweed
Cc1ccc2sc(Br)c(-c3c(O)c(C)nn(C)c3=O)c2c1	90
Cc1nn(C)c(=O)c(-c2ccc(Cl)c3ccccc23)c1O	60
Cc1nn(C)c(=O)c(-c2cccc3ccc(I)cc23)c1O	80
CCc1nn(C)c(=O)c(-c2c(C)oc3ccc(Cl)cc23)c1O	0
COc1ccc2sc(C)c(-c3c(O)c(C)nn(C)c3=O)c2c1	60

----------
- Test system: radish, wild (wild radish, Raphanus raphanistrum)
- ASSAY SUMMARY: Test D controlled growth environment herbicide test, pre- and postemergence
- Type: in vivo
- RECORDED CONDITIONS: Postemergence, 250 g ai/ha; scale 0 to 100 (0 no effect, 100 complete control)
QUANTITY NAME: Plant response rating, Radish, Wild

SMILES TEXT	QUANTITY NAME	RESULT
Cc1ccc2sc(C)c(-c3c(OC(=O)OC(C)C)c(C)nn(C)c3=O)c2c1	Plant response rating, Radish, Wild	45
Cc1cc(C)c2ccccc2c1-c1c(O)c(C)nn(C)c1=O	Plant response rating, Radish, Wild	100
Cc1nn(C)c(=O)c(-c2ccc(Br)c3ccccc23)c1O	Plant response rating, Radish, Wild	100
Cc1cc2ccccc2c(-c2c(O)c(C)nn(C)c2=O)c1C	Plant response rating, Radish, Wild	95
Cc1ccc2ccccc2c1-c1c(O)c(Br)nn(C)c1=O	Plant response rating, Radish, Wild	100

----------
Reported Plant response rating, Buckwheat, Wild is given for each of the following compounds.
- Tested on: buckwheat, wild (wild buckwheat, Polygonum convolvulus)
- ASSAY SUMMARY: Test D controlled growth environment herbicide test, pre- and postemergence
- Assay type: in vivo
- RECORDED CONDITIONS: Postemergence, 250 g ai/ha; scale 0 to 100 (0 no effect, 100 complete control)
- Excerpt: […]

COMPOUND	MEASURED ON	Plant response rating, Buckwheat, Wild
CCc1sc2c(C)cc(C)cc2c1-c1c(O)c(C)nn(C)c1=O [Compound 57]	buckwheat, wild (wild buckwheat, Polygonum convolvulus)	100
Cn1nc(Br)c(O)c(-c2cccc3ccccc23)c1=O [Compound 20]	buckwheat, wild (wild buckwheat, Polygonum convolvulus)	100
CCCC(=O)Oc1c(C)nn(C)c(=O)c1-c1c(C)sc2ccc(C)cc12 [Compound 105]	buckwheat, wild (wild buckwheat, Polygonum convolvulus)	100
Cc1ccc2ccccc2c1-c1c(OC(=O)OC(C)C)c(C)nn(C)c1=O [Compound 72]	buckwheat, wild (wild buckwheat, Polygonum convolvulus)	100
Cc1cc(C)c2ccccc2c1-c1c(O)c(C)nn(C)c1=O [Compound 21]	buckwheat, wild (wild buckwheat, Polygonum convolvulus)	100
Cc1cc(C)c2sc(C)c(-c3c(O)c(C)nn(C)c3=O)c2c1 [Compound 2]	buckwheat, wild (wild buckwheat, Polygonum convolvulus)	100
CC(=O)Oc1c(C)nn(C)c(=O)c1-c1c(C)sc2ccc(Cl)cc12 [Compound 108]	buckwheat, wild (wild buckwheat, Polygonum convolvulus)	100
Cc1nn(C)c(=O)c(-c2c(C)sc3ccc(Br)cc23)c1O [Compound 22]	buckwheat, wild (wild buckwheat, Polygonum convolvulus)	100
COC(=O)Oc1c(C)nn(C)c(=O)c1-c1c(C)sc2ccc(C)cc12 [Compound 80]	buckwheat, wild (wild buckwheat, Polygonum convolvulus)	100
Cc1cc2ccccc2c(-c2c(O)c(C)nn(C)c2=O)c1C [Compound 34]	buckwheat, wild (wild buckwheat, Polygonum convolvulus)	100
Cc1nn(C)c(=O)c(-c2cccc3ccc(Br)cc23)c1O [Compound 126]	buckwheat, wild (wild buckwheat, Polygonum convolvulus)	100

Sourced from patent US10597388B2
